System: HCV
Assay: anti-HCV activity assay in cell culture (HCV RNA by one-step quantitative RT-PCR)
Type: cell-based
Settings: Hepatitis C virus, Huh7.5, 96 h, compound at 10 μmol/L; Huh7.5 cells infected with HCV virus particles; cultured 96 hrs; HCV RNA in cells vs virus control group; read-out: percent inhibition (%)
Please enter met where inhibition at 10 µM is greater than or equal to 80%, and not met where it is lower.

{"compound_structure": "CN1CCN(c2ccc(C#N)c(CN3CCN(c4ccc(O)cc4)CC3)c2)CC1", "label_class": "not met"}
{"compound_structure": "CCc1ccc(N2CCN(Cc3cc(N4CCN(C)CC4)ccc3C#N)CC2)cc1", "label_class": "met"}
{"compound_structure": "Cc1ccc(NCc2cc(N3CCNCC3)ccc2C#N)cc1", "label_class": "met"}
{"compound_structure": "CN(C)CN(C)c1ccc(C#N)c(CN(C)c2ccc(C(C)(C)C)cc2)c1", "label_class": "met"}
{"compound_structure": "Cc1ccc(N2CCN(Cc3cc(N(C)CN4CCCCC4)ccc3C#N)CC2)cc1", "label_class": "met"}
{"compound_structure": "COc1ccc(N(C)Cc2cc(N3CCN(C)CC3)ccc2C#N)cc1", "label_class": "met"}
{"compound_structure": "CCCN1CCN(c2ccc(C#N)c(CNc3ccccc3)c2)CC1", "label_class": "not met"}
{"compound_structure": "CCCN1CCN(c2ccc(C#N)c(CN(C)c3ccc(Oc4ccccc4)cc3)c2)CC1", "label_class": "met"}
{"compound_structure": "CCCN1CCN(c2ccc(C#N)c(CN(CC)c3ccc(Sc4ccccc4)cc3)n2)CC1", "label_class": "not met"}

* * *

List of inhibition at 10 µM values.
Tested on: HCV
Assay: anti-HCV activity assay in cell culture (HCV RNA by one-step quantitative RT-PCR)
Type: cell-based
Details: Hepatitis C virus, Huh7.5, 96 h, compound at 10 μmol/L; Huh7.5 cells infected with HCV virus particles; cultured 96 hrs; HCV RNA in cells vs virus control group; read-out: percent inhibition (%)

{"compound": "CCCN1CCN(c2ccc(C#N)c(CNc3ccc(Sc4ccccc4)cc3)c2)CC1", "inhibition at 10 µM / %": 78}
{"compound": "CN1CCN(c2ccc(C#N)c(CN3CCN(c4ccc(C(C)(C)C)cc4)CC3)c2)CC1", "inhibition at 10 µM / %": 90}
{"compound": "CN1CCN(c2ccc(C#N)c(CN3CCN(c4ccc(N(C)C)cc4)CC3)c2)CC1", "inhibition at 10 µM / %": 65}
{"compound": "COc1ccc(NCc2cc(N3CCN(C)CC3)ccc2C#N)cc1", "inhibition at 10 µM / %": 90}
{"compound": "Cc1ccc(N2CCN(Cc3cc(N4CCN(C)CC4)ccc3C#N)CC2)cc1", "inhibition at 10 µM / %": 98}
{"compound": "N#Cc1ccc(NCCN2CCCCC2)nc1CNCCCc1ccc(C2CCCC2)cc1", "inhibition at 10 µM / %": 76}
{"compound": "CCCN(Cc1cc(N2CCN(C)CC2)ccc1C#N)c1ccc(Cl)cc1", "inhibition at 10 µM / %": 88}
{"compound": "COc1ccc(N2CCN(Cc3cc(NCN4CCCCC4)ccc3C#N)CC2)cc1", "inhibition at 10 µM / %": 62}
{"compound": "Cc1ccc(NCc2cc(N3CCNC(C)C3)ccc2C#N)cc1 (stereo not shown)", "inhibition at 10 µM / %": 88}
{"compound": "Cc1ccc(NCc2cc(N3CCCC(N)C3)ccc2C#N)cc1 (stereo not shown)", "inhibition at 10 µM / %": 68}
{"compound": "CSc1ccc(N2CCN(Cc3cc(N4CCN(C)CC4)ccc3C#N)CC2)cc1", "inhibition at 10 µM / %": 70}
{"compound": "CNc1ccc(N2CCN(Cc3cc(N4CCN(C)CC4)ccc3C#N)CC2)cc1", "inhibition at 10 µM / %": 78}
{"compound": "CN(C)CNc1ccc(C#N)c(CN2CCN(c3ccc(C(C)(C)C)cc3)CC2)c1", "inhibition at 10 µM / %": 90}
{"compound": "COc1ccc(NCc2cc(NCN3CCCCC3)ccc2C#N)cc1", "inhibition at 10 µM / %": 61}
{"compound": "Cc1ccc(N2CCN(Cc3cc(N(C)CN4CCCC4)ccc3C#N)CC2)cc1", "inhibition at 10 µM / %": 87}
{"compound": "CN1CCN(c2ccc(C#N)c(CNc3ccc(C4CCCC4)cc3)c2)CC1", "inhibition at 10 µM / %": 94}
{"compound": "COc1ccc(N2CCN(Cc3cc(N4CCNCC4)ccc3C#N)CC2)cc1", "inhibition at 10 µM / %": 79}
{"compound": "COc1ccc(NCc2cc(N3CCNCC3)ccc2C#N)cc1", "inhibition at 10 µM / %": 89}
{"compound": "Cc1ccc(N(C)Cc2cc(N3CCN(C)CC3)ccc2C#N)cc1", "inhibition at 10 µM / %": 97}

* * *

System: HCV
Assay: anti-HCV activity assay in cell culture (HCV RNA by one-step quantitative RT-PCR)
Type: cell-based
Details: Hepatitis C virus, Huh7.5, 96 h, compound at 10 μmol/L; Huh7.5 cells infected with HCV virus particles; cultured 96 hrs; HCV RNA in cells vs virus control group; read-out: percent inhibition (%)
Experimental: The assay results of anti-HCV activity of the compound synthesized according to the present invention in cell culture are shown in Table 1, wherein the molecular weight is calculated by ChemBioDraw 12.0 software from the molecular structure of each compound. 100 μL Huh7.5 cells were seeded in 96-well cell culture plate to 1×10^5/mL density, cultured in an incubator at 37° C. under the condition of 5% CO2 and saturated humidity for 6 hrs. […]

{"compound": "C=CCN1CCN(c2ccc(C#N)c(CN(C)c3ccc(C(C)(C)C)cc3)c2)CC1", "inhibition at 10 µM, %": 86}
{"compound": "CCCN(Cc1cc(N2CCN(C)CC2)ccc1C#N)c1ccc(C(C)(C)C)cc1", "inhibition at 10 µM, %": 96}
{"compound": "COc1ccc(N(C)Cc2cc(N3CCN(c4ccccc4)CC3)ccc2C#N)cc1", "inhibition at 10 µM, %": 70}
{"compound": "CC(C)c1ccc(N2CCN(Cc3cc(N4CCN(C)CC4)ccc3C#N)CC2)cc1", "inhibition at 10 µM, %": 68}
{"compound": "Cc1ccc(N2CCN(Cc3cc(N4CCCC(N)C4)ccc3C#N)CC2)cc1 (stereo not shown)", "inhibition at 10 µM, %": 71}
{"compound": "CC(C)c1ccc(NCc2cc(N3CCN(C)CC3)ccc2C#N)cc1", "inhibition at 10 µM, %": 90}
{"compound": "Cc1ccc(N2CCN(Cc3cc(N4CCN(C)CC4)ccc3C#N)CC2)cc1C", "inhibition at 10 µM, %": 80}
{"compound": "Cc1ccc(NCc2nc(N3CCN(C)CC3)ccc2C#N)cc1", "inhibition at 10 µM, %": 72}
{"compound": "CN1CCN(c2ccc(C#N)c(CNc3ccc(Br)cc3)c2)CC1", "inhibition at 10 µM, %": 87}
{"compound": "CN1CCN(c2ccc(C#N)c(CNc3ccc(C(C)(C)C)cc3)c2)CC1", "inhibition at 10 µM, %": 92}
{"compound": "CN1CCN(c2ccc(C#N)c(CN3CCN(c4ccc(C5CCCCC5)cc4)CC3)c2)CC1", "inhibition at 10 µM, %": 86}
{"compound": "Cc1ccc(NCc2cc(N3CCN(C)CC3)ccc2C#N)cc1", "inhibition at 10 µM, %": 92}
{"compound": "COc1ccc(N2CCN(Cc3cc(N4CCN(C)CC4)ccc3C#N)CC2)cc1", "inhibition at 10 µM, %": 91}
{"compound": "CCc1ccc(NCc2cc(N3CCN(C)CC3)ccc2C#N)cc1", "inhibition at 10 µM, %": 87}
{"compound": "CN(C)CNc1ccc(C#N)c(CNc2ccc(C(C)(C)C)cc2)c1", "inhibition at 10 µM, %": 73}
{"compound": "Cc1cccc(NCc2nc(N(C)CCN(C)C)ccc2C#N)c1", "inhibition at 10 µM, %": 84}
{"compound": "CN1CCN(c2ccc(C#N)c(CNc3ccccc3)c2)CC1", "inhibition at 10 µM, %": 82}
{"compound": "N#Cc1ccc(N2CCNCC2)cc1CN1CCN(c2ccc(Cl)cc2)CC1", "inhibition at 10 µM, %": 73}
{"compound": "CN1CCN(c2ccc(C#N)c(CN3CCN(c4ccc(Cl)cc4)CC3)c2)CC1", "inhibition at 10 µM, %": 92}

* * *

Test system: HCV
Test: anti-HCV activity assay in cell culture (HCV RNA by one-step quantitative RT-PCR)
Type: cell-based
Conditions: Hepatitis C virus, Huh7.5, 96 h, compound at 10 μmol/L; Huh7.5 cells infected with HCV virus particles; cultured 96 hrs; HCV RNA in cells vs virus control group; read-out: percent inhibition (%)
inhibition at 10 µM overview
endpoint_name: inhibition at 10 µM (%)

{"compound": "Cc1ccc(N2CCN(Cc3cc(N4CCNCC4)ccc3C#N)CC2)cc1 [VI-6]", "scale_unit": "%", "recorded_number": 88}
{"compound": "COc1ccc(NCc2nc(N(C)CCN(C)C)ccc2C#N)cc1 [Compound 38]", "scale_unit": "%", "recorded_number": 70}
{"compound": "Cc1ccc(NCc2cc(NCCN3CCCCC3)ccc2C#N)cc1 [Compound 28]", "scale_unit": "%", "recorded_number": 65}
{"compound": "CN1CCN(c2ccc(C#N)c(CN3CCN(c4ccc(Br)cc4)CC3)c2)CC1 [VI-34]", "scale_unit": "%", "recorded_number": 91}
{"compound": "Cc1cc(N2CCN(Cc3cc(N4CCNCC4)ccc3C#N)CC2)ccc1Cl [VI-15]", "scale_unit": "%", "recorded_number": 95}
{"compound": "CN1CCN(c2ccc(C#N)c(CN3CCC(c4ccc(C(C)(C)C)cc4)CC3)c2)CC1 [VI-38]", "scale_unit": "%", "recorded_number": 80}
{"compound": "CN(C)CCN(C)c1ccc(C#N)c(CN2CCN(c3ccc(N4CCCC4)cc3)CC2)c1 [VI-22]", "scale_unit": "%", "recorded_number": 83}
{"compound": "Cc1cc(C2CCN(Cc3cc(N4CCN(C)CC4)ccc3C#N)CC2)ccc1C#N [VI-23]", "scale_unit": "%", "recorded_number": 77}
{"compound": "COc1ccc(NCc2nc(N3CCN(C)CC3)ccc2C#N)cc1 [Compound 36]", "scale_unit": "%", "recorded_number": 75}
